Provenance of the data: patent US20100311714A1

# Tested on: PKB Ser473 phosphorylation in Rat1-myr-HA-p110 beta cells
# assay.summary: Reverse protein array, PKB Ser473 phosphorylation in Rat1-myr-HA-p110 beta cells
# Type: cell-based
# assay.setup: Rattus norvegicus, 0.5 h, 30 minutes compound incubation, read-out: p-PKB/IC50_beta
pIC50: −log10 of the molar value.
recorded.endpoint: pIC50

Record excerpt, results attached:
GET pIC50 where system = PKB Ser473 phosphorylation in Rat1-myr-HA-p110 beta cells and item = COc1ncccc1-n1c(=O)n(C)c2cnc3ccc(-c4cnc(N(C)C)nc4)cc3c21 [Example 1.9]
7.22

GET pIC50 where system = PKB Ser473 phosphorylation in Rat1-myr-HA-p110 beta cells and item = CNc1ncc(-c2ccc3ncc4c(c3c2)n(-c2cncc(C)c2)c(=O)n4C)cn1 [Example 17.2]
7.02

GET pIC50 where system = PKB Ser473 phosphorylation in Rat1-myr-HA-p110 beta cells and item = CCNc1cc(-c2ccc3ncc4c(c3c2)n(-c2ccc(F)nc2C)c(=O)n4C)cnc1CO [Example 7.9]
8.00

a. Cc1ccc(-n2c(=O)n(C)c3cnc4ccc(-c5cncc(NC(C)C)c5)cc4c32)c(C)n1 [Example 14.8]
b. CCNc1cc(-c2ccc3ncc4c(c3c2)n(-c2ccc(C)nc2C)c(=O)n4C)cnc1C [Example 14.6]
c. COCCOc1cncc(-c2ccc3ncc4c(c3c2)n(-c2cccnc2C)c(=O)n4C)c1 [Example 2.17]
d. CNC(=O)c1ccc(-c2ccc3ncc4c(c3c2)n(-c2cccnc2C)c(=O)n4C)cc1 [Example 2.4]
e. Cc1nc(N2CC(F)(F)C2)ccc1-n1c(=O)n(C)c2cnc3ccc(-c4cncc(C(C)(C)O)c4)cc3c21 [Example 24.2]
Parameters: sort_field (pIC50), sort_dir (desc). Give the order by naming the labels one after another as requested.
b, d, e, a, c

1. CNC(=O)c1cc(-c2ccc3ncc4c(c3c2)n(-c2ccc(F)nc2C)c(=O)n4C)cnc1N [Example 7.14]
2. CNc1ncc(-c2ccc3ncc4c(c3c2)n(-c2ccc(N3CC[C@H](O)C3)nc2C)c(=O)n4C)cc1F [Example 32.2]
Which of the two gives a bigger number for pIC50: 1 or 2 ? Please respond with the label that marks your chosen entry.
2

I. CCOc1ncc(-c2ccc3ncc4c(c3c2)n(-c2cccnc2C)c(=O)n4C)cn1 [Example 2.5]
II. CCNc1cc(-c2ccc3ncc4c(c3c2)n(-c2ccc(N(C)CCO)nc2C)c(=O)n4C)cnc1CO [Example 26.3]
III. COc1ncccc1-n1c(=O)n(C)c2cnc3ccc(-c4ccc(C(N)=O)cc4)cc3c21 [Example 1.6]
IV. CCOc1ccc(-c2ccc3ncc4c(c3c2)n(-c2ccc(N3CCNCC3)nc2OC)c(=O)n4C)cn1 [Example 9.1]
Parameters: sort_field (pIC50), sort_dir (desc). Give the order by naming the labels one after another as requested.
II, III, IV, I

I. Cc1cccnc1-n1c(=O)n(C)c2cnc3ccc(-c4cnc5[nH]ccc5c4)cc3c21 [Example 3.2]
II. Cc1nc(F)ccc1-n1c(=O)n(C)c2cnc3ccc(-c4cnc(N)c(C(F)(F)F)c4)cc3c21 [Example 7.1]
Compare pIC50: is it lower for I or for II ? Please respond with the label that marks your chosen entry.
I
(I: 7.13, II: 7.87)
